Reported IC50 values for a set of molecules
- tested target: IKKε (Homo sapiens)
- Construct: purchased Invitrogen PR8031B
- Sequence (Q14164 whole entry): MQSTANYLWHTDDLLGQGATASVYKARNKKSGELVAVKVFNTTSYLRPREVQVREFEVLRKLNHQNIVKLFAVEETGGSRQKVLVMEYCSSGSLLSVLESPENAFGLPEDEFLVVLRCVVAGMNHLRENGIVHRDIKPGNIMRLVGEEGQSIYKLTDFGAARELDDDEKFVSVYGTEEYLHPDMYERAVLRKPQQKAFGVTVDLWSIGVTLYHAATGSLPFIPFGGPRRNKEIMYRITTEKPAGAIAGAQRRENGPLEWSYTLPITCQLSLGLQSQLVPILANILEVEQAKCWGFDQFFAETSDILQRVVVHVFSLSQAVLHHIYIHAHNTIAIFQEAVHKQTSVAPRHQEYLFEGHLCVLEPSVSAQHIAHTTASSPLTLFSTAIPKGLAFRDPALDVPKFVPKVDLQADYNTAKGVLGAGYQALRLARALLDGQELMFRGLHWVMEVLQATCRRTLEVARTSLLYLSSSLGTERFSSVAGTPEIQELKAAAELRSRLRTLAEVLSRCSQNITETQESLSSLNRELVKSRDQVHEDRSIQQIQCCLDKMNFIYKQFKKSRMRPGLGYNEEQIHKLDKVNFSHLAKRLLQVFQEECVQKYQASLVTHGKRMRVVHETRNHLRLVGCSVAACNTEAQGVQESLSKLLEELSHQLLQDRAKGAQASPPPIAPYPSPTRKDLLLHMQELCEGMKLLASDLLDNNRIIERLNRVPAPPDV
- protocol: IKKε inhibition, ADP-Glo Kinase Assay
- Assay type: biochemical
- condition: luminometer
measured endpoint: IC50 (µM)

> print(dat)
                                   molecule  unit  bound.sign  measured.value
1  O=C(Nc1n[nH]c2ccc(C(=O)NC(c3ccccn3)C3CC3)cc12)c1ccc(N2CCOCC2)cc1 (centres unmarked)    µM           =            0.34
2  O=C(Nc1n[nH]c2ccc(C(=O)NC3(c4cccnc4)CC3)cc12)c1ccc(F)cc1    µM           =            0.65
3  CN1CCN(c2ccc(C(=O)Nc3n[nH]c4ccc(C(=O)NCc5c[nH]nn5)cc34)cc2)CC1    µM           =            1.59
4  CC(NC(=O)c1ccc2[nH]nc(NC(=O)c3ccc(N4CCOCC4)cc3)c2c1)c1cccnc1 (centres unmarked)    µM           >              10
5  CC[C@H](NC(=O)c1ccc2[nH]nc(NC(=O)c3ccc(N4CCN(C)CC4)cc3)c2c1)c1ccccc1    µM           =            1.23
6  Cc1cnc(-c2cc3[nH]nc(NC(=O)c4ccc(NCCN5CCCCC5)cc4)c3s2)o1    µM           =            0.32
7  CC1CN(c2ccc(C(=O)Nc3n[nH]c4ccc(C(=O)NC(C)c5ccccc5)cc34)cc2)CC(C)O1 (centres unmarked)    µM           =           0.018
8  CN1CCC(Nc2ccc(C(=O)Nc3n[nH]c4ccc(C(=O)NCc5cccs5)cc34)cc2)CC1    µM           =           0.069
